Molecular target: pre-pro-human insulin
Entries annotated with measured Selectivity
READOUT TYPE: Selectivity

protein="trypsin variant SEQ ID NO: 18 (protein) IVGGYTCAANSIPYQVSLNSGSHRCGGSLINSQWVVSAAHCYKSRIQVRLGEHNIDVLEGNEQFINAAKIITHPNFNGNTLDNDIMLIKLSSPATLNSRVATVSLPRSCAAAGTECLISGWGNTSSSGSSYPSLLQCLKAPVLSDSSCKSSYPGQITGNMICVGFLEGGKDACQGDSGGPVVCNGQLQGIVSSGYGCAQKNKPGVYTKVCNYVNWIQQTIAAN" measured_result=>90%
protein="trypsin variant SEQ ID NO: 51 (protein) IVGGYTCAANSIPYQVSLNSGSHKCGGSLINSQWVVSAAHCYKSRIQVRLGEHNIDVLEGNEQFINAAKIITHPNFNGNTLDNDIMLIKLSSPATLNSRVATVSLPRSCAAAGTECLISGWGNTKSSGSSYPSLLQCLKAPVLSDSSCKSSYPGQITGNMICVGFLEGGKDACQGDSGGPVVCNGQLQGIVSSGYGCAQKNKPGVYTKVCNYVNWIQQTIAAN" measured_result=>70%
protein="trypsin variant SEQ ID NO: 42 (protein) IVGGYTCAANSIPYQVSLNSGSHRCGGSLINSQWVVSAAHCYKSRIQVRLGEHNIDVLEGNEQFINAAKIITHPNFNGNTLDNDIMLIKLSSPATLNSRVATVSLPRSCAAAGTECLISGWGNTKSSGSSYPSLLQCLKAPVLSDSSCKSSYPGQITGNMICVGFLEGGKDACQGDSGGPVVCNGQLQGIVSSGYGCAQKNKPGVYTKVCNYVNWIQQTIAAN" measured_result=>90%
protein="trypsin variant SEQ ID NO: 85 (protein) IVGGYTCAANSIPYQVSLNSGSHRCGGSLINSQWVVSAAHCYKPRIQVRLGEHNIHVLEGNEQFINAAKIITHPNFNPNTLDNDIMLIKLSSPATLNSHVATVSLPTSCAAAGTECLISGWGNTCSSGSSMPSLLQCLKAPVLSDSSCKSSYPGQITGNMICVGFLEGGKDACQGDSGGPVVCNGQLQGIVSSGYGCAQKNKPGVYTKVCNYVNWIQQTIAAN" measured_result=>90%
protein="trypsin variant SEQ ID NO: 64 (protein) IVGGYTCAANSIPYQVSLNSGSHRCGGSLINSQWVVSAAHCYKSRIQVRLGEHNIDVLEGNEQFINAAKIITHPNFNGNTLDNDIMLIKLSSPATLNSRVATVSLPRSCAAAGTECLISGWGNTKSSGSSWPSLLQCLKAPVLSDSSCKSSYPGQITGNMICVGFLEGGKDACQGDSGGPVVCNGQLQGIVSSGYGCAQKNKPGVYTKVCNYVNWIQQTIAAN" measured_result=>90%
protein="trypsin variant SEQ ID NO: 10 (protein) IVGGYTCAANSIPYQVSLNSGSHRCGGSLINSQWVVSAAHCYKSRIQVRLGEHNIDVLEGNEQFINAAKIITHPNFNGNTLDNDIMLIKLSSPATLNSTVATVSLPRSCAAAGTECLISGWGNTKSSGSSYPSLLQCLKAPVLSDSSCKSSYPGQITGNMICVGFLEGGKDACQGDSGGPVVCNGQLQGIVSSGYGCAQKNKPGVYTKVCNYVNWIQQTIAAN" measured_result=>90%
protein="trypsin variant SEQ ID NO: 124 (protein) IVGGYTCAANSIPYQVSLNSGSHRCGGSLINSQWVVSAAHCYKSRIQVRLGEHNIDVLEGNEQFINAAKIITHPNFNGNTLDNDIMLIKLSSPATLNSRVATVSLPRSCAAAGTECLISGWGNTKSSGSSKPSLLQCLKAPVLSDSSCKSSYPGQITGNMICVGFLEGGKDACQGDSGGPVVCNGQLQGIVSSGYGCAQKNKPGVYTKVCNYVNWIQQTIAAN" measured_result=27.6%
protein="trypsin variant SEQ ID NO: 112 (protein) IVGGYTCAANSIPYQVSLNSGSHRCGGSLINSQWVVSAAHCYKPRIQVRLGEHNIHVLEGNEQFINAAKIITHPNFNPNTLDNDIMLIKLSSPATLNSHVATVSLPTSCAAAGTECLISGWGNTSSSGSSYPSLLQCLKAPVLSDSSCKSSYPGQITGNMICVGFLEGGADSCQGDSGGPVVCNGQLQGIVSSGYGCAQKNKPGVYTKVCNYVNWIQQTIAAN" measured_result=>90%
protein="trypsin variant SEQ ID NO: 8 (protein) IVGGYTCAANSIPYQVSLNSGSHRCGGSLINSQWVVSAAHCYKSRIQVRLGEHNIDVLEGNEQFINAAKIITHPNFNGNTLDNDIMLIKLSSPATLNSGVATVSLPRSCAAAGTECLISGWGNTKSSGSSYPSLLQCLKAPVLSDSSCKSSYPGQITGNMICVGFLEGGKDACQGDSGGPVVCNGQLQGIVSSGYGCAQKNKPGVYTKVCNYVNWIQQTIAAN" measured_result=>90%
protein="trypsin variant SEQ ID NO: 106 (protein) IVGGYTCAANSIPYQVSLNSGSHRCGGSLINSQWVVSAAHCYKSRIQVRLGEHNIHVLEGNEQFINAAKIITHPNFNPNTLDNDIMLIKLSSPATLNSAVATVSLPTSCAAAGTECLISGWGNTCSSGSSMPSLLQCLKAPVLSDSSCKSSYPGQITGNMICVGFLEGGADACQGDSGGPVVCNGQLQGIVSSGYGCAQKNKPGVYTKVCNYVNWIQQTIAAN" measured_result=>90%
